Recorded normalised inhibition (eCFP-eYFP dual reporter) values for a group of substances are listed next.
# SUBJECT OF TEST: UBE2G1
# TEST: reporter assay of Huesken 2005; also: test concentration or dose not given here
# APPLIED CONDITIONS: siRNA
Oligonucleotides are written 5' to 3', each unit as a sugar letter and its base; * is a phosphorothioate linkage, no mark a phosphodiester; rarer units and linkages stand in square brackets, end groups in braces. Plain capitals give the bases only. d = 2'-deoxy (DNA); r = 2'-OH (RNA)
Answer format: value, then unit.

Examples with answers:
SUBSTANCE	EXPERIMENTAL RESULT
sense rUrCrUrGrCrArGrGrUrUrUrArArUrArGrArUrGdTdT / antisense rCrArUrCrUrArUrUrArArArCrCrUrGrCrArGrAdAdA	60.6%
sense rUrGrArArArUrUrCrArUrUrArCrArGrArArArUdTdT / antisense rArUrUrUrCrUrGrUrArArUrGrArArUrUrUrCrAdTdT	61.6%

Kindly consider the entry below.
Q: Entry sense rCrUrCrCrUrArArArArUrGrArArArUrUrCrArUdTdT / antisense rArUrGrArArUrUrUrCrArUrUrUrUrArGrGrArGdGdT , system UBE2G1: what normalised inhibition (eCFP-eYFP dual reporter) was measured?
Ans: 87.9%

###

Item-by-item account of normalised inhibition (eCFP-eYFP dual reporter)
# SUBJECT OF TEST: UBE2V1
# TEST: reporter assay of Huesken 2005
# APPLIED CONDITIONS: siRNA
Oligonucleotides are written 5' to 3', each unit as a sugar letter and its base; * is a phosphorothioate linkage, no mark a phosphodiester; rarer units and linkages stand in square brackets, end groups in braces. Plain capitals give the bases only. d = 2'-deoxy (DNA); r = 2'-OH (RNA)
Give the number; % is assumed, so skip it.

SUBSTANCE	EXPERIMENTAL RESULT
sense rArArCrCrGrArArUrArUrArCrArGrCrCrUrUrAdTdT / antisense rUrArArGrGrCrUrGrUrArUrArUrUrCrGrGrUrUdTdT	96.1
sense rArArCrCrUrArGrArArArArUrUrUrCrArCrUrGdTdT / antisense rCrArGrUrGrArArArUrUrUrUrCrUrArGrGrUrUdCdA	49.4
sense rUrUrGrUrCrCrUrGrCrArArGrArGrCrUrUrCrGdTdT / antisense rCrGrArArGrCrUrCrUrUrGrCrArGrGrArCrArAdCdT	51.9
sense rCrCrCrUrCrGrCrArArUrUrUrCrCrGrArCrUrGdTdT / antisense rCrArGrUrCrGrGrArArArUrUrGrCrGrArGrGrGdAdC	84.5

// below: normalised inhibition (eCFP-eYFP dual reporter) requested for another substance
Q: Reported normalised inhibition (eCFP-eYFP dual reporter) for sense rArGrGrArArGrArCrUrUrGrArArCrCrUrArGrAdTdT / antisense rUrCrUrArGrGrUrUrCrArArGrUrCrUrUrCrCrUdTdC : what is it?
Ans: 78

###

# SUBJECT OF TEST: UBE2S
# TEST: reporter assay of Huesken 2005
# APPLIED CONDITIONS: siRNA
Oligonucleotides are written 5' to 3', each unit as a sugar letter and its base; * is a phosphorothioate linkage, no mark a phosphodiester; rarer units and linkages stand in square brackets, end groups in braces. Plain capitals give the bases only. d = 2'-deoxy (DNA); r = 2'-OH (RNA)
normalised inhibition (eCFP-eYFP dual reporter) reference
The answer is to be given in %; state only the numeric part.

In the examples that follow, each entry is paired with its recorded normalised inhibition (eCFP-eYFP dual reporter).
SUBSTANCE	EXPERIMENTAL RESULT
sense rGrGrCrArUrCrArArGrGrUrCrUrUrUrCrCrCrAdTdT / antisense rUrGrGrGrArArArGrArCrCrUrUrGrArUrGrCrCdAdT	57.3
sense rGrArCrCrCrArCrCrCrGrArUrGrGrCrArUrCrAdTdT / antisense rUrGrArUrGrCrCrArUrCrGrGrGrUrGrGrGrUrCdTdG	61.7
sense rUrCrCrCrArArCrGrArGrGrArGrGrArCrCrUrCdTdT / antisense rGrArGrGrUrCrCrUrCrCrUrCrGrUrUrGrGrGrAdAdA	35.7
sense rArCrArCrGrUrArCrUrGrCrUrGrArCrCrArUrCdTdT / antisense rGrArUrGrGrUrCrArGrCrArGrUrArCrGrUrGrUdCdG	59.3

Q: So what does the record say about normalised inhibition (eCFP-eYFP dual reporter) for sense rGrCrCrUrGrCrUrCrUrUrGrGrArGrArArCrUrAdTdT / antisense rUrArGrUrUrCrUrCrCrArArGrArGrCrArGrGrCdGdG ?
Ans: 76

Q: For the substance sense rCrArArGrUrGrCrCrUrGrCrUrGrArUrCrCrArCdTdT / antisense rGrUrGrGrArUrCrArGrCrArGrGrCrArCrUrUrGdAdT , what normalised inhibition (eCFP-eYFP dual reporter) is on record?
Ans: 63.5

The measured values listed here are drawn from the OligoGym collection.
